assay: Solvability in DMSO (table footnote); format: physicochemical; parameters: key: **: poor or no solvability in dimethyl sulfoxide (DMSO)
experimentalEndpoint: solvability in dimethyl sulfoxide (DMSO)

Would you please look over these solved cases?
[
  {
    "molecule": "CC(c1ccccc1)N1C2CCC(C2)C1c1cn(CC2CCCN2C(=O)OC(C)(C)C)nn1 (centres unmarked)",
    "reportedMeasurement": "21 **"
  },
  {
    "molecule": "C[C@@H](c1ccccc1)N1C[C@H](n2cc(-c3ccc(-c4cn([C@H]5CN([C@@H](C)c6ccccc6)[C@H]6CC[C@@H]5C6)nn4)cc3)nn2)[C@@H]2CC[C@H]1C2",
    "reportedMeasurement": "15 **"
  },
  {
    "molecule": "C[C@@H](c1ccccc1)N1C[C@@H](n2cc(-c3cccc(-c4cn([C@@H]5CN([C@@H](C)c6ccccc6)[C@H]6CC[C@@H]5C6)nn4)c3)nn2)[C@@H]2CC[C@H]1C2",
    "reportedMeasurement": "16 **"
  },
  {
    "molecule": "C[C@@H](c1ccccc1)N1C[C@@H](n2cc(-c3ccc(-c4cn([C@@H]5CN([C@@H](C)c6ccccc6)[C@H]6CC[C@@H]5C6)nn4)cc3)nn2)[C@@H]2CC[C@H]1C2",
    "reportedMeasurement": "14 **"
  }
]

For the next question, use this molecule.
Challenge: Record request: solvability in dimethyl sulfoxide (DMSO) value, item `C[C@@H](c1ccccc1)N1C[C@H](n2cc(CCCc3cn([C@H]4CN([C@@H](C)c5ccccc5)[C@H]5CC[C@@H]4C5)nn3)nn2)[C@@H]2CC[C@H]1C2`
Response given: 11 **

* * *

system: BALB/3T3 clone A31; test: Growth inhibition assay (SRB assay), normal fibroblasts BALB/3T3 clone A31; assay type: cell-based, mouse; settings: Mus musculus, BALB/3T3 clone A31, 72 h, supplement, mean ± SD, read-out: IC50 BALB3T3 (raw data)
experimentalEndpoint: IC50

Would you please look over these solved cases?
[
  {
    "testSmiles": "C[C@@H](c1ccccc1)N1C[C@H](n2cc(-c3cccc(-c4cn([C@H]5CN([C@@H](C)c6ccccc6)[C@H]6CC[C@@H]5C6)nn4)c3)nn2)[C@@H]2CC[C@H]1C2",
    "IC50": "> 100 µM"
  },
  {
    "testSmiles": "C[C@@H](c1ccccc1)N1C[C@@H](n2cc(-c3ccc(-c4cn([C@@H]5CN([C@@H](C)c6ccccc6)[C@H]6CC[C@@H]5C6)nn4)cc3)nn2)[C@@H]2CC[C@H]1C2",
    "IC50": "> 100 µM"
  }
]

For the next question, use this compound.
Challenge: Recall the recorded IC50 for `C[C@@H](c1ccccc1)N1C[C@@H](n2cc(CO)nn2)[C@@H]2CC[C@H]1C2` with BALB/3T3 clone A31 and state it.
Response given: > 100 µM
